test system: SULT1C1; assay: SULT1C1 enzyme activity assay: sulfate conjugation of 4-nitrophenol with 35S-PAPS, COS-1 cytosol of recombinant allozymes; type: biochemical, human; details: recombinant allozyme in COS-1 cytosol; 10 mM 4-NP, 0.4 μM 35S-PAPS, pH 7.4; percentage of wild type SULT1C1 enzyme activity
metric name: % WT activity

Value lookup for % WT activity; key = Asp60Ala: SULT1C1 polypeptide having an alanine at amino acid residue 60 in place of aspartic acid (protein) MALTSDLGKQIKLKEVEGTLLQPATVDNWSQIQSFEAKPDDLLICTYPKAGTTWIQEIVAMIEQNGDVEKCQRAIIQHRHPFIEWARPPQPSGVEKAKAMPSPRILKTHLSTQLLPPSFWENNCKFLYVARNAKDCMVSYYHFQRMNHMLPDPGTWEEYFETFINGKVVWGSWFDHVKGWWEMKDRHQILFLFYEDIKRDPKHEIRKVMQFMGKKVDETVLDKIVQETSFEKMKENPMTNRSTVSKSILDQSISSFMRKGTVGDWKNHFTVAQNERFDEIYRRKMEGTSINFCMEL
13.9 ± 0.3%

Data provenance is patent US7541169B2.
